target-or-test-system: NEK2 (human) (UniProt P51955)
Sequence (P51955 whole entry, looked up): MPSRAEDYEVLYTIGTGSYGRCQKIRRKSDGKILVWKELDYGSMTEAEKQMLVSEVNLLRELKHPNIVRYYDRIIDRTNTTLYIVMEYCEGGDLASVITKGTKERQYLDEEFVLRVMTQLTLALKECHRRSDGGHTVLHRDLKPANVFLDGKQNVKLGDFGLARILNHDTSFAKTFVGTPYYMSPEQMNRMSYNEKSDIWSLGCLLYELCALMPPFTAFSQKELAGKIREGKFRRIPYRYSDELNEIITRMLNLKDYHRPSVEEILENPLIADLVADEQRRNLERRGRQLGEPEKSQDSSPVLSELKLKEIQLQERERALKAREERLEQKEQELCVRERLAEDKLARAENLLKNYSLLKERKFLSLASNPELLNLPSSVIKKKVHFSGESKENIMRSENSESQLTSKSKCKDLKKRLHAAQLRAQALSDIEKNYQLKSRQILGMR
test: Caliper, Mobility shift assay off-chip
reported-conditions: compound 0.1 µM
metric: inhibition (%)

The following compounds have reported results that may help.
Incoming: Using known records, supply inhibition for `Cn1cc(-c2cnc3ccc4ccc(CS(=O)(=O)NC5CCCCC5)cc4c(=O)c3c2)cn1`
Outgoing: -2.6

Incoming: // fetch inhibition given entry `CN(c1ccc2ccc3ncc(-c4cnn(C)c4)cc3c(=O)c2c1)S(=O)(=O)NCc1ccccn1`
Outgoing: -6

[I] Cn1cc(-c2cnc3ccc4ccc(CS(=O)(=O)CCc5ccccn5)cc4c(=O)c3c2)cn1
[II] Cn1cc(-c2cnc3ccc4ccc(CS(=O)(=O)NCC5CCCCN5)cc4c(=O)c3c2)cn1 (configuration not stated)
[III] O=c1c2cc(CS(=O)(=O)NCc3ccccn3)ccc2ccc2ncc(C3CCNCC3)cc12
[IV] O=C(CCc1ccc2ccc3ncc(C4CCNCC4)cc3c(=O)c2c1)NCc1ccccn1
[V] Cn1cc(-c2cnc3ccc4ccc(CS(N)(=O)=O)cc4c(=O)c3c2)cn1
Incoming: Your job: order these 5 records by inhibition, ascending. Your task in answering is to list the labels in the requested order.
Outgoing: I, III, V, II, IV

----------
target-or-test-system: MAP4K4 (human)
test: Caliper, Mobility shift assay off-chip
reported-conditions: compound 0.1 µM
metric: inhibition (%)

Field: example entries. Status: answers known.
Incoming: Return inhibition for the following compound: `Cn1cc(-c2cnc3ccc4ccc(CS(=O)(=O)CCc5ccccn5)cc4c(=O)c3c2)cn1`
Outgoing: -2

Incoming: Note inhibition for the compound shown: `Cn1cc(-c2cnc3ccc4ccc(CS(=O)(=O)NC5CCCCC5)cc4c(=O)c3c2)cn1`
Outgoing: 9.2

Incoming: Quickly give me recorded inhibition for Cn1cc(-c2cnc3ccc4ccc(CS(=O)(=O)NCC5CCCCN5)cc4c(=O)c3c2)cn1 (configuration not stated)
Outgoing: 4.1

Incoming: Supply inhibition value. Item: `O=c1c2cc(CS(=O)(=O)NCc3ccccn3)ccc2ccc2ncc(C3CCNCC3)cc12`
Outgoing: -10.7

Incoming: Find the measured inhibition of `O=C(CCc1ccc2ccc3ncc(C4CCNCC4)cc3c(=O)c2c1)NCc1ccccn1` and report it.
Outgoing: 5

[P] CN(c1ccc2ccc3ncc(-c4cnn(C)c4)cc3c(=O)c2c1)S(=O)(=O)NCc1ccccn1
[Q] Cn1cc(-c2cnc3ccc4ccc(CS(N)(=O)=O)cc4c(=O)c3c2)cn1
Incoming: Of P versus Q , which is the one with smaller reported inhibition? Respond using the label that marks the chosen record.
Outgoing: Q

----------
target-or-test-system: MAPK3 (human)
test: Caliper, Mobility shift assay off-chip
reported-conditions: compound 0.1 µM
metric: inhibition (%)

Incoming: Give inhibition; test system MAPK3 (human); compound `O=C(CCc1ccc2ccc3ncc(C4CCNCC4)cc3c(=O)c2c1)NCc1ccccn1`
Outgoing: 1.7

[1] O=c1c2cc(CS(=O)(=O)NCc3ccccn3)ccc2ccc2ncc(C3CCNCC3)cc12
[2] Cn1cc(-c2cnc3ccc4ccc(CS(=O)(=O)CCc5ccccn5)cc4c(=O)c3c2)cn1
[3] CN(c1ccc2ccc3ncc(-c4cnn(C)c4)cc3c(=O)c2c1)S(=O)(=O)NCc1ccccn1
[4] Cn1cc(-c2cnc3ccc4ccc(CS(N)(=O)=O)cc4c(=O)c3c2)cn1
[5] Cn1cc(-c2cnc3ccc4ccc(CS(=O)(=O)NCC5CCCCN5)cc4c(=O)c3c2)cn1 (stereo unspecified)
Incoming: Endpoint returns the given compounds ordered by ascending inhibition. Please reply with the labels ordered as requested. Many thanks.
Outgoing: 2, 4, 3, 1, 5
(2: -10.8%, 4: -0.7%, 3: 0.9%, 1: 1.7%, 5: 7.2%)
